So I've got IC50 readings for Prostaglandin G/H synthase 1 (Ovis aries), take a look.

smiles-notation | experimental-system | units-of-measure | value-comparator | IC50
CC(=O)O[C@@]12[C@H](OC(=O)[C@@H](C(C)C)N(C)C)[C@@H](C)[C@@]3(O)[C@@H](C=C(CO)C[C@@]4(O)C(=O)C(C)=C[C@@H]34)[C@@H]1C2(C)C | Prostaglandin G/H synthase 1 (Ovis aries) | nM | = | 1
CC(=O)O[C@@]12[C@H](OC(=O)[C@@H](C(C)C)N(C)C)[C@@H](C)[C@]3(O)[C@@H]4C=C(C)C(=O)[C@@H]4CC(CO)=C[C@H]3[C@@H]1C2(C)C | Prostaglandin G/H synthase 1 (Ovis aries) | nM | = | 1
CC(=O)O[C@@]12[C@H](OC(=O)[C@H](C(C)C)N(C)C)[C@@H](C)[C@]3(O)[C@@H]4C=C(C)C(=O)[C@@H]4CC(CO)=C[C@H]3[C@@H]1C2(C)C | Prostaglandin G/H synthase 1 (Ovis aries) | nM | > | 100000

###

- experimental-system: Prostaglandin G/H synthase 2 (Homo sapiens)
- Sequence (P35354 whole entry): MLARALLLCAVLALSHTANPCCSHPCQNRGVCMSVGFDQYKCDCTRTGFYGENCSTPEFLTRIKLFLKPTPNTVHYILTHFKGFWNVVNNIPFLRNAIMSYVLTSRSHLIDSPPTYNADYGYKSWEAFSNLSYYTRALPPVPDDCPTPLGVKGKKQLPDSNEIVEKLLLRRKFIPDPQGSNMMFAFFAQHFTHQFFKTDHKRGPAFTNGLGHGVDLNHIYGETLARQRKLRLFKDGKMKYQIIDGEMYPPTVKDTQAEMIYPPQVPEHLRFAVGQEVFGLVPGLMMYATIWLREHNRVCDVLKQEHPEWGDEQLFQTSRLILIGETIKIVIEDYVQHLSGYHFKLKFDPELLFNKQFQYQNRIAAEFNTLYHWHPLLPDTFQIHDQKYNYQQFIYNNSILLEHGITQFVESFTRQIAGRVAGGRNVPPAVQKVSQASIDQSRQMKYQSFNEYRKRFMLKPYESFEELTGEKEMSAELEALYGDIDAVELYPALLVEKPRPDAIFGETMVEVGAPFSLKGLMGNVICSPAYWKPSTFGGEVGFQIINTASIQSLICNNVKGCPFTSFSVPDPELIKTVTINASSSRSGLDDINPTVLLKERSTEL
- test-protocol: Inhibition of human recombinant COX2
pIC50: −log10 of the molar value.
attribute-measured: pIC50

smiles-notation | value-comparator | numeric-value
CC(=O)O[C@@]12[C@H](OC(=O)[C@H](C(C)C)N(C)C)[C@@H](C)[C@]3(O)[C@@H]4C=C(C)C(=O)[C@@H]4CC(CO)=C[C@H]3[C@@H]1C2(C)C | < | 4.00
CC(=O)O[C@@]12[C@H](OC(=O)C(=C(C)C)N(C)C)[C@@H](C)[C@]3(O)[C@@H]4C=C(C)C(=O)[C@@H]4CC(CO)=C[C@H]3[C@@H]1C2(C)C | < | 4.00
CC(=O)O[C@@]12[C@H](OC(=O)[C@@H](C(C)C)N(C)C)[C@@H](C)[C@]3(O)[C@@H]4C=C(C)C(=O)[C@@H]4CC(CO)=C[C@H]3[C@@H]1C2(C)C | = | 5.66
CC(=O)O[C@@]12[C@H](OC(=O)[C@@H](C(C)C)N(C)C)[C@@H](C)[C@@]3(O)[C@@H](C=C(CO)C[C@@]4(O)C(=O)C(C)=C[C@@H]34)[C@@H]1C2(C)C | = | 5.66
